Please go through the items and note down their Growth Rate.
Test system: U2OS
Assay: Incucyte cell viability with U2OS; note: filed as whole numbers so only -1 and 0 and 1 occur
Format: toxicity, cell-based
Conditions: human, 12 h, 10 µM, compound concentration 10 uM, replicate number 1, timepoint 12 hours
Please respond with just the number, no unit label.

Returns the measured Growth Rate for the input compound. Input: O=S(=O)(c1ccccc1)N(CC(F)(F)F)c1ccc(C(O)(C(F)(F)F)C(F)(F)F)cc1 1

How about this compound: C=CC(=O)Nc1cccc(C(=O)Nc2ccc(Nc3cc(-c4[nH]c(SC)nc4C)ccn3)cc2)c1 0

How about this compound: Cc1sc2c(c1C)C(c1ccc(Cl)cc1)=N[C@@H](CC(=O)OC(C)(C)C)c1nnc(C)n1-2 1

How about this compound: C[C@H]1CC(=O)Nc2cc(C(=O)NCCC3CC3)ccc2N1C(=O)N1CC2CC2C1 (some centres undefined) 1

---

Tested on: Fibroblast
Assay: Incucyte cell viability with human fibroblast; note: filed as whole numbers so only -1 and 0 and 1 occur
Type: toxicity, cell-based
Settings: 18 h, 10 µM, compound concentration 10 uM, replicate number 1, timepoint 18 hours
PROPERTY MEASURED: Growth Rate

Returns the measured Growth Rate for the input compound. Input: N#Cc1ccc(NC(=O)Nc2ccccc2Br)c2nn[nH]c12 1

How about this compound: CN(C)S(=O)(=O)c1ccc(NC(=S)N2CCC(C(O)(c3ccccc3)c3ccccc3)CC2)cc1 0

How about this compound: C[C@@H]1CCN(C(=O)CC#N)C[C@@H]1N(C)c1ncnc2[nH]ccc12.O=C(O)CC(O)(CC(=O)O)C(=O)O [TOFACITINIB CITRATE] 1

How about this compound: COc1cc2c(cc1OCCCN1CCCC1)N=C(N)C21CCC1 1

How about this compound: CC[C@@H]1[C@H](F)C(=O)N[C@@H]1COc1nccc2cc(C(N)=O)c(OC)cc12 0

---

Test system: U2OS
Experiment: Multiplex assay against U2OS
Assay type: toxicity, cell-based
Details: human, 24 h, 1 µM, compound concentration 1 uM, replicate 2
PROPERTY MEASURED: Population Tubulin-Different-Phenotype (%)
Just the number in %, nothing appended.

Returns the measured Population Tubulin-Different-Phenotype (%) for the input compound. Input: OC1(c2ccc(Cl)cc2)CCN(Cc2c[nH]c3ccccc23)CC1 8

How about this compound: Cc1c(-c2ccc(O)cc2)n(Cc2ccc(OCCN3CCCCCC3)cc2)c2ccc(O)cc12 15

How about this compound: Cl.N#Cc1ccc2[nH]cc(CCCCN3CCN(c4ccc5oc(C(N)=O)cc5c4)CC3)c2c1 [VILAZODONE HYDROCHLORIDE] 18

How about this compound: CCN(CC)CCCCNc1ncc2cc(-c3cc(OC)cc(OC)c3)c(NC(=O)NC(C)(C)C)nc2n1 69

How about this compound: Cc1cc(C)cc(-c2cnc3cc(Cl)c(-c4cccc(O)c4)cc3c2OCCCN)c1 28

How about this compound: CN(C)C(=O)N[C@H]1CC[C@H](CCN2CCN(c3cccc(Cl)c3Cl)CC2)CC1.Cl [CARIPRAZINE HYDROCHLORIDE] 14

How about this compound: Cc1nc(-c2cn3c(n2)-c2ccc(-c4cnn(C(C)(C)C(N)=O)c4)cc2OCC3)n(C(C)C)n1 29

How about this compound: COc1cccc([C@@H](C)NCCCc2ccccc2Cl)c1.Cl [TECALCET HYDROCHLORIDE] 12
